method summary: Pharmacokinetic analysis of BK40197 (brain and serum, LC-MS/MS)
Assay type: in vivo, C57BL/6 mice
reported conditions: both sexes, C57BL/6, mouse, serum; 20 mg/kg single IP
reported metric: Cmax
Enter the number, and then the unit.

// sample Cc1cccc(-c2cc3nccc(N4CCOCC4)c3s2)c1 [BK40197] , its Cmax was 543 ng/g

----------
method summary: Pharmacokinetic analysis of BK40197 (brain and serum, LC-MS/MS)
Type: in vivo, C57BL/6 mice
reported conditions: both sexes, C57BL/6, mouse, serum; 20 mg/kg single IP; read-out: Serum Tmax
Description: The PK profile of BK40197 was investigated after single IP doses of 20 and 45 mg/kg BK40197 to male and female 5–6 mo old C57BL/6 mice compared with DMSO. A solution at 5 ng/ml isotope labelled reference compounds d8-BK40197 was prepared. The solvent used for internal standard (ISTD) dilution is (200 ml/50 ml) acetonitrile/ethyl acetate (ACN/EtOAc). Brain tissue was homogenized in ice water bath and was prepared using weight accurately on analytical balance with 4 decimals. […]
reported metric: Tmax (h)
Use h as the unit, but write only the number.

# compound Cc1cccc(-c2cc3nccc(N4CCOCC4)c3s2)c1 ; its Tmax = 1

----------
method summary: Pharmacokinetic analysis of BK40197 (brain and serum, LC-MS/MS)
Assay type: in vivo, C57BL/6 mice
reported conditions: both sexes, C57BL/6, mouse, brain; 20 mg/kg single IP; read-out: Brain Tmax
Method: The PK profile of BK40197 was investigated after single IP doses of 20 and 45 mg/kg BK40197 to male and female 5–6 mo old C57BL/6 mice compared with DMSO. A solution at 5 ng/ml isotope labelled reference compounds d8-BK40197 was prepared. The solvent used for internal standard (ISTD) dilution is (200 ml/50 ml) acetonitrile/ethyl acetate (ACN/EtOAc). Brain tissue was homogenized in ice water bath and was prepared using weight accurately on analytical balance with 4 decimals. […]
reported metric: Tmax (h)
Entry rule: numbers only, all in h.

Looking up Cc1cccc(-c2cc3nccc(N4CCOCC4)c3s2)c1 [BK40197] , I see its Tmax listed as 2

----------
method summary: Pharmacokinetic analysis of BK40197 (brain and serum, LC-MS/MS)
Format: in vivo, C57BL/6 mice
reported conditions: both sexes, C57BL/6, mouse, serum; 45 mg/kg single IP; read-out: Serum Tmax
reported metric: Tmax
Answer as a quantity: numeral, then unit.

Value of Tmax reported for the compound Cc1cccc(-c2cc3nccc(N4CCOCC4)c3s2)c1 [BK40197] is 1 h
